Test: Circular dichroism, secondary structure (Bestsel)
Format: physicochemical
Details: CD in 20 mM SDS
Where a SMILES comes first, the peptide text is derived from it. [ ]: non-standard residue; d: D form. d2Nal = N[C@H](Cc1ccc2ccccc2c1)C(=O)O
measurementName: Antiparallel (%)

{"compound": "CC[C@H](C)[C@H](NC(=O)CNC(=O)[C@H](CO)NC(=O)[C@H](CC(C)C)NC(=O)[C@@H](N)Cc1ccccc1)C(=O)N[C@H](C(=O)NCC(=O)N[C@@H](CCSC)C(=O)N[C@@H](CC(C)C)C(=O)N[C@H](C)C(=O)N[C@@H](CCCCN)C(=O)N[C@@H](CC(C)C)C(=O)N[C@@H](Cc1ccccc1)C(N)=O)C(C)C [[G10a]-SHa (2)] (H-FLSGIVGML[dA]KLF-NH2)", "measurementName": "Antiparallel", "reportedResult": 17.60}
{"compound": "CC[C@H](C)[C@H](NC(=O)CNC(=O)[C@H](CO)NC(=O)[C@H](CC(C)C)NC(=O)[C@@H](N)Cc1ccccc1)C(=O)N[C@H](C(=O)NCC(=O)N[C@@H](CCSC)C(=O)N[C@@H](CC(C)C)C(=O)N[C@@H](CCCCN)C(=O)N[C@@H](CCCCN)C(=O)N[C@@H](CC(C)C)C(=O)N[C@@H](Cc1ccccc1)C(N)=O)C(C)C [[G10K]-SHa (4)] (H-FLSGIVGMLKKLF-NH2)", "measurementName": "Antiparallel", "reportedResult": 11.30}
{"compound": "CC[C@H](C)[C@H](NC(=O)CNC(=O)[C@H](CO)NC(=O)[C@H](CC(C)C)NC(=O)[C@@H](N)Cc1ccccc1)C(=O)N[C@H](C(=O)NCC(=O)N[C@@H](CCSC)C(=O)N[C@@H](CC(C)C)C(=O)N[C@H](Cc1ccccc1)C(=O)N[C@@H](CCCCN)C(=O)N[C@@H](CC(C)C)C(=O)N[C@@H](Cc1ccccc1)C(N)=O)C(C)C [[G10f]-SHa (3)] (H-FLSGIVGML[dF]KLF-NH2)", "measurementName": "Antiparallel", "reportedResult": 15.40}
{"compound": "CC[C@H](C)[C@H](NC(=O)CNC(=O)[C@H](CO)NC(=O)[C@H](CC(C)C)NC(=O)[C@@H](N)Cc1ccccc1)C(=O)N[C@H](C(=O)NCC(=O)N[C@@H](CCSC)C(=O)N[C@@H](CC(C)C)C(=O)N[C@H](Cc1ccc2ccccc2c1)C(=O)N[C@@H](CCCCN)C(=O)N[C@@H](CC(C)C)C(=O)N[C@@H](Cc1ccccc1)C(N)=O)C(C)C [[G10n]-SHa (5)] (H-FLSGIVGML[d2Nal]KLF-NH2)", "measurementName": "Antiparallel", "reportedResult": 34.10}
